# targetUnderTest: AtGID1a (Arabidopsis thaliana, UniProt Q9MAA7)
# Sequence (Q9MAA7 whole entry): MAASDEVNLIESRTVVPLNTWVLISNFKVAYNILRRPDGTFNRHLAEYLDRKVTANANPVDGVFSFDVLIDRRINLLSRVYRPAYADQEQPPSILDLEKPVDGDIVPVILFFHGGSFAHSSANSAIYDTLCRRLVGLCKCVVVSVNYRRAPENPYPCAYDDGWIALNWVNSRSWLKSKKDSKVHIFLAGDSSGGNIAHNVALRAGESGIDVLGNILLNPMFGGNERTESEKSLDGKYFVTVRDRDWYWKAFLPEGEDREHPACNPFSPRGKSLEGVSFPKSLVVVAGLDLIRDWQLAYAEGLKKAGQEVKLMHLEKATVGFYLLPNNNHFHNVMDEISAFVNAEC
quantityKind: pKd
As a rule, pKd stands for the negative log10 of the concentration, concentration in M.

Ask: # query: pKd of entry CC1C[C@]23C[C@H]1CCC2[C@]12CC[C@H](O)[C@](C)(C(=O)O1)[C@H]2[C@@H]3C(=O)O (stereo partly shown) [H2-GA4, 16,17-dihydro-GA4]
Reply: 5.70

###

# targetUnderTest: AtGID1c in the presence of RGA (Arabidopsis thaliana, UniProt Q940G6)
# Sequence (Q940G6 1-344): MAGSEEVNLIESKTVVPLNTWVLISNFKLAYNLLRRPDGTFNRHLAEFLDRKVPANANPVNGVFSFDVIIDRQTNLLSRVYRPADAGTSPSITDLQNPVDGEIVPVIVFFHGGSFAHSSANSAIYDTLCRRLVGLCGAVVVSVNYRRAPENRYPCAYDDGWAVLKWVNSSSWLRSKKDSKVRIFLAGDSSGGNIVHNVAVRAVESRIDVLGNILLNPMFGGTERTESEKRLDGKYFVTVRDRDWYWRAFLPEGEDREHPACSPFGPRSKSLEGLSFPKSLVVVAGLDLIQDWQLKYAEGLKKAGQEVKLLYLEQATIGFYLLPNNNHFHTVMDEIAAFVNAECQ
# Sequence (Q9SLH3 1-587 partner): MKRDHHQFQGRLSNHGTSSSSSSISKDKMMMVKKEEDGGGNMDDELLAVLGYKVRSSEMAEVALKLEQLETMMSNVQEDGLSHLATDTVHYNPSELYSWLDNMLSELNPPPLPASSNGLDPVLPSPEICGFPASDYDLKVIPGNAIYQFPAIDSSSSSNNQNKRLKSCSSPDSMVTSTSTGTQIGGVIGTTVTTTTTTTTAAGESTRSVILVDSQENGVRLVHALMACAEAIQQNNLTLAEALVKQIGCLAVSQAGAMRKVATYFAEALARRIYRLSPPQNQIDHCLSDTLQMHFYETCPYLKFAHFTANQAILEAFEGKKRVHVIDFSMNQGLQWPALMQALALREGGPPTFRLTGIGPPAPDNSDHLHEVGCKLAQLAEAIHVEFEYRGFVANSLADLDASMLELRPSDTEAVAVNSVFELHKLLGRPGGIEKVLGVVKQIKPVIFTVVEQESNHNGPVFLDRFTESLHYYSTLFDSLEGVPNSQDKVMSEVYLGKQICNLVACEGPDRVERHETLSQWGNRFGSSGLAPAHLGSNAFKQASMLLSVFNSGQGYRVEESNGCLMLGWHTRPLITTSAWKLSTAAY
# assayOverview: Scatchard analysis of AtGID1c-GA binding in the presence of RGA
quantityKind: Kd (nM)
Unit nM implied. Number only.

Ask: Entry CC1C[C@]23C[C@H]1CCC2[C@]12CC[C@H](O)[C@](C)(C(=O)O1)[C@H]2[C@@H]3C(=O)O (stereo partly shown) [H2-GA4, 16,17-dihydro-GA4] has what Kd?
Reply: 12

###

# targetUnderTest: AtGID1c (Arabidopsis thaliana)
# Sequence (Q940G6 1-344): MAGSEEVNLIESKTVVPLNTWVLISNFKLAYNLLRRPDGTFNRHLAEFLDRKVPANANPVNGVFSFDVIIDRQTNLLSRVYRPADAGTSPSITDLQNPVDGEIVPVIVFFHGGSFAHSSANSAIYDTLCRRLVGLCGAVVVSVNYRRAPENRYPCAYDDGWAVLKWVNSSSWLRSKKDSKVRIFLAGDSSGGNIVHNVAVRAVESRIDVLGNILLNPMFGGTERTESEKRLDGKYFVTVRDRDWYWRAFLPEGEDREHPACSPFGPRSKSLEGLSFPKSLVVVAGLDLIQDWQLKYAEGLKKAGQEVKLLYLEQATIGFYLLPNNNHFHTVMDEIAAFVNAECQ
quantityKind: pIC50
Remember, pIC50 is on a log scale: it is -log10 of the molar concentration.

Ask: Requested field: pIC50. Item: CC1C[C@]23C[C@H]1CCC2[C@]12CC[C@H](O)[C@](C)(C(=O)O1)[C@H]2[C@@H]3C(=O)O (stereo partly shown) [H2-GA4, 16,17-dihydro-GA4]
Reply: 5.30
